Where do the numbers come from? From patent US11306071B2.

Target: HEK-293 cells expressing human recombinant adenosine A1 receptor (Homo sapiens (Human), UniProt P30542)
Sequence (P30542 whole entry): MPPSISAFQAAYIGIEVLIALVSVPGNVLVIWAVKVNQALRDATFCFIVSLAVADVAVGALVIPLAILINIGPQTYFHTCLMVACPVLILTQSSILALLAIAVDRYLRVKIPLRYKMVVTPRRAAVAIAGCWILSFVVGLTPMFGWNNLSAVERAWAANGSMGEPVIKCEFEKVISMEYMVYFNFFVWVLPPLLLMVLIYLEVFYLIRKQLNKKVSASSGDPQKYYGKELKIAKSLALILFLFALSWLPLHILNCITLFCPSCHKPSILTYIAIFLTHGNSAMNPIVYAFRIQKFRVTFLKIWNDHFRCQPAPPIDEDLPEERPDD
Test: cAMP assay (Assay 2), A1 receptor
Recorded measurements of IC50, one per entry

# count of solved cases: 3
{"COMPOUND": "N#Cc1cccc(CNC(=O)c2nc(-c3ccc4ncccc4c3)c(-c3ccccc3)nc2N)n1 [compound 98]", "IC50": "11 nM"}
{"COMPOUND": "CC(C)(NC(=O)c1nc(-c2ccc3ncccc3c2)c(-c2ccccc2)nc1N)c1ccccn1 [compound 108]", "IC50": "326 nM"}
{"COMPOUND": "CC(NC(=O)c1nc(-c2ccc3ncccc3c2)c(-c2ccccc2)nc1N)c1ccccn1 (stereo not shown) [compound 73]", "IC50": "403 nM"}

Problem: Could you tell me which IC50 is on file for N#Cc1cccc(-c2nc(N)cnc2-c2cc(Cl)c3ncccc3c2)c1F [2-10] ?
Result: 27 nM
